Attribution: ChEMBL document CHEMBL1123988

Listing: MIC of selected compounds
- System: Candida albicans
- Experiment Notes: In vitro antifungal activity against Candida albicans ATCC 10259
- Assay type: functional
Report only the number, with the unit µg/mL understood.

Recorded MIC (compound `CN1O[C@H](c2ccccc2Cl)C[C@@]1(Cn1ccnc1)c1ccc(Cl)cc1` ): 7

Reported MIC ( `CN1O[C@H](c2ccccc2)C[C@@]1(Cn1ccnc1)c1ccc(F)cc1` ) = 70

Entry `Fc1ccc([C@]2(Cn3ccnc3)C[C@@H](c3ccccc3)ON2Cc2ccccc2)cc1` ; MIC = 20

Reported MIC of `Cc1ccc([C@H]2C[C@@](Cn3ccnc3)(c3ccc(Cl)cc3)N(C)O2)cc1` : 20

The compound identified as `COc1ccc([C@@H]2C[C@@](Cn3ccnc3)(c3ccc(OC)cc3)N(C)O2)cc1` registered its MIC at 70

MIC in this record for `Cc1ccc([C@@H]2C[C@@](Cn3ccnc3)(c3ccc(Cl)cc3)N(C)O2)cc1` : 7

Per the records, this compound ( `CN1O[C@H](c2ccc(Cl)cc2)C[C@@]1(Cn1ccnc1)c1ccc(Cl)cc1` ) has MIC equal to 7

// field: MIC; key: `CN1O[C@H](c2c(Cl)cccc2Cl)C[C@@]1(Cn1ccnc1)c1ccc(Cl)cc1` ; value = 7

The compound `CN1O[C@@H](c2c(Cl)cccc2Cl)C[C@@]1(Cn1ccnc1)c1ccc(Cl)cc1` showed MIC equal to 7

MIC measured on `CN1O[C@H](c2ccccc2)C[C@@]1(Cn1ccnc1)c1ccccc1` = 70

response.value for `CN1O[C@H](c2ccccc2)C[C@@]1(Cn1ccnc1)c1ccc(Cl)cc1` (field: MIC) = 20

The reported MIC of the compound CC(=O)N1CCN(c2ccc(OCC3COC(Cn4ccnc4)(c4ccc(Cl)cc4Cl)O3)cc2)CC1 (configuration not stated) was 20
